Test system: CP265
Test: qHTS profiling for inhibitors of Plasmodium falciparum proliferation (AID 504749); further: nearly all actives have a fitted effect of over 60% in size
Conditions: P. falciparum in erythrocytes, SYBR Green DNA, 72 h; series mostly up to 28.7 µM
Inconclusive results are not listed. Activity calls are given as the source filed them. The call rests on the fitted dose curve; in most records, active means well fitted inhibition curve with a large enough effect; inconclusive means small, poorly fitted or top-dose-only effect; inactive means flat fitted curve, though single readings scatter.
Entry note: the call must match one of active, inactive

A selection of reference data follows.
>  <compound>
Cc1ncc(CO)c(C=O)c1O

>  <label>
inactive

$$$$
>  <compound>
O=[N+]([O-])c1cccc(S(=O)(=O)NCCNS(=O)(=O)c2cccc([N+](=O)[O-])c2)c1

>  <label>
inactive

$$$$
>  <compound>
CC1CCc2c(N3CCC(O)CC3)c(F)cc3c(=O)c(C(=O)O)cn1c23 (centres undefined)

>  <label>
inactive

$$$$
>  <compound>
CCNC(=O)NCc1cccc(Cl)c1

>  <label>
inactive

$$$$
>  <compound>
C#C[C@]1(O)CC[C@H]2[C@@H]3CCc4cc(OC)ccc4[C@H]3CC[C@@]21C

>  <label>
inactive

$$$$
>  <compound>
c1ccc(-c2nc[nH]c2-c2ccccc2)cc1

>  <label>
inactive

$$$$

query: Recorded test call requested for NC(=S)N/N=C/c1cccnc1
result: inactive

query: So what was the verdict on NCCNc1cccc2ccccc12 in this test?
result: inactive

query: Hello, I am checking results. What call was entered for C#C[C@]1(O)CC[C@H]2[C@@H]3CCC4=Cc5oncc5C[C@]4(C)[C@H]3CC[C@@]21C ?
result: inactive

query: Test call, this compound: CCCCCCCCCCCCCCCCO
result: inactive

query: Call for entry Oc1ccccc1C=NCc1ccccc1 :
result: inactive

query: I would be grateful if you could indicate the recorded call for Cc1ccc(O)c([C@H](CCN(C(C)C)C(C)C)c2ccccc2)c1 .
result: active

query: For this compound, state the assay outcome: NC(N)=NCc1cccc(I)c1
result: inactive

query: # lookup: test call for O=c1[nH]c(=O)n([C@H]2C[C@H](O)[C@@H](CO)O2)cc1F
result: inactive
